Reported values of pIC50 for individual entries
# Tested on: MCF-10A cells
# ASSAY COMMENT: SRB in vitro cytotoxicity assay, MCF-10A
# Type: cell-based
# CONDITION: Homo sapiens, 24 h postincubation, read-out: IC50 against MCF-10A cells
Formally, pIC50 is defined as -log10 of the concentration c, with c in mol/L.

- COMPOUND: "CC(=O)O[C@H]1C(=O)[C@@]2(C)[C@H]([C@H](OC(=O)c3ccccc3)[C@]3(O)C[C@H](OC(=O)[C@H](O)[C@@H](NC(=O)c4ccccc4)c4ccccc4)C(C)=C1C3(C)C)[C@]1(OC(C)=O)CO[C@@H]1C[C@@H]2O [paclitaxel, reference compound]"
  ENDPOINT RESULT: 4.92

In the following, a different compound is considered.
Input: pIC50 for COc1ccc2c(c1O)C1Cc3cc4c(cc3CN1CC2)OCO4 (centres unmarked) ?
Output: 3.57

----------
# System: MCF-7 cells
# ASSAY COMMENT: SRB in vitro cytotoxicity assay, MCF-7
# Assay type: cell-based, human
# CONDITION: Homo sapiens, MCF7; 48 h postincubation, SRB assay; read-out: IC50 (dose causing 50% inhibition) of MCF-7 cells
QUANTITY: IC50

- MOLECULE: "COc1ccc2c(c1O)C1Cc3cc4c(cc3CN1CC2)OCO4 (centres unmarked)"
  IC50: "2520 nM"

In the following, a different molecule is considered.
Input: IC50 for CC(=O)O[C@H]1C(=O)[C@@]2(C)[C@H]([C@H](OC(=O)c3ccccc3)[C@]3(O)C[C@H](OC(=O)[C@H](O)[C@@H](NC(=O)c4ccccc4)c4ccccc4)C(C)=C1C3(C)C)[C@]1(OC(C)=O)CO[C@@H]1C[C@@H]2O [paclitaxel, reference compound] ?
Output: 130 nM
